Molecular target: Ncad-Fc protein (chicken N-cadherin ectodomain fused to the Fc fragment of mouse IgG2b) (Gallus gallus, UniProt P10288)
Construct: chicken N-cadherin ectodomain fused to the Fc fragment of mouse IgG2b
Sequence (P10288 165-729 limits assumed): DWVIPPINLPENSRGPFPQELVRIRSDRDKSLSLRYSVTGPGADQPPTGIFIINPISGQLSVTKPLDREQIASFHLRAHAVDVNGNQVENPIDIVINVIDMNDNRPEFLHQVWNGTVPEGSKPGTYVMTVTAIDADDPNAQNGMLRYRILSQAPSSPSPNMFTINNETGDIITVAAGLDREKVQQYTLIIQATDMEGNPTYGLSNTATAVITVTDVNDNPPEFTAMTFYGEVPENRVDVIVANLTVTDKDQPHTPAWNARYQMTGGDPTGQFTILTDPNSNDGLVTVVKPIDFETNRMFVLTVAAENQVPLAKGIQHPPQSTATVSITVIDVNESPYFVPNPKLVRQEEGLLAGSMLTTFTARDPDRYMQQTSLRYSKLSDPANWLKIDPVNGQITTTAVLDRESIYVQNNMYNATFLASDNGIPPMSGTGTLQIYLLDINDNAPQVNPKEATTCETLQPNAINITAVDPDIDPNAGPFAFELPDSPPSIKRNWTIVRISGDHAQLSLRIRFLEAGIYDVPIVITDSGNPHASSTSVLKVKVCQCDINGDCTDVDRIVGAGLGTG
Test: Ncad-Fc bead-bead aggregation assay
Format: biochemical
Details: N-cadherin coated Dynabeads, 30 minutes to 1 hour at 37° C.
quantity measured: active in Ncad-Fc bead-bead aggregation assay (disrupt bead-bead aggregation)

Solved cases (5 shown):
compound | result
CCc1nnc(-c2ccc(C(C)(C)C)cc2)[nH]1 [compound 1-1] | active
Cc1nnc(-c2cccc(Cl)c2)[nH]1 [compound 8-1] | active
Cc1nnc(-c2cccnc2)[nH]1 [compound 66-1] | active
Cc1nnc(-c2ccccn2)[nH]1 [compound 65-1] | active
Cc1nnc(-c2ccc(C(C)(C)C)cc2)[nH]1 [compound 53-1] | active

Below is a list of compounds. For each, state its recorded active in Ncad-Fc bead-bead aggregation assay (disrupt bead-bead aggregation).
1. COc1ccc(-c2nnc(C)[nH]2)cc1 [compound 12-1]
2. Cc1nnc(-c2ccncc2)[nH]1 [compound 67-1]
3. Cc1nnc(-c2ccccc2Cl)[nH]1 [compound 7-1]
4. CC(C)(C)c1ccc(-c2nnc(N)[nH]2)cc1 [compound 50-1]
5. Cc1nnc(-c2ccc(Cl)c(Cl)c2)[nH]1 [compound 14-1]

Output:
active
active
active
active
active
